Where do these numbers come from? They come from patent US20250295799A1.

target: T1, cynomolgus monkey glypican-3 (GPC3) (cynomolgus monkey, UniProt A5A6P7 25-554 (Pan troglodytes entry)); test: flow cytometry on CHO-S cells transfected with cynomolgus GPC3;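 further: antibodies incubated 24 h at 4 °C with transiently transfected cells, binding read as AF647 geometric mean fluorescence of live cells, GFP-transfected cells as negative control, Hill-slope specific-binding fit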
T1 construct: Transiently expressed on CHO-S cells; also called cynoGPC3; CynoGPC3-CHO
Below, each of the binders is paired with its reported Bmax (MFI) value.

Field: example entries. Status: answers known.
H18L6_LC_G34A mAb, v40212 (antibody, human IgG1, kappa, V domains shown, M3-H18L6 chains with the stated light chain point mutation, IgG1/kappa) VH: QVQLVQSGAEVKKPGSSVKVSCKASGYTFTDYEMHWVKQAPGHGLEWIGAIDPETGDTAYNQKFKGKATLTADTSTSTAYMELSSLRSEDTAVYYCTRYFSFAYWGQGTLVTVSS VL: EIVLTQSPATLSLSPGERATISCRSSQSLRHSNANTYLQWYQQKPGQAPRLLIYKVSNRFSGVPARFSGSGSGTDFTLTISSLEPEDFAVYFCYQSKHVPYTFGGGTKVEIKR: 3160 MFI
H18L6_LC_G34E mAb, v40204 (antibody, human IgG1, kappa, V domains shown, M3-H18L6 chains with the stated light chain point mutation, IgG1/kappa) VH: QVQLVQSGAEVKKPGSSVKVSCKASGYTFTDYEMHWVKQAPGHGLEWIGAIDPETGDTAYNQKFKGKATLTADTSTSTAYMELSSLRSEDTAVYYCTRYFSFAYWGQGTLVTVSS VL: EIVLTQSPATLSLSPGERATISCRSSQSLRHSNENTYLQWYQQKPGQAPRLLIYKVSNRFSGVPARFSGSGSGTDFTLTISSLEPEDFAVYFCYQSKHVPYTFGGGTKVEIKR: 2870 MFI
H18L6_LC_G34R mAb, v40206 (antibody, human IgG1, kappa, V domains shown, Full-size IgG1/kappa) VH: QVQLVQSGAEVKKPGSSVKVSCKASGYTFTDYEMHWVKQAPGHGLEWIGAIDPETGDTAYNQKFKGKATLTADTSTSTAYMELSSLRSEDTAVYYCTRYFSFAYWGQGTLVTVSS VL: EIVLTQSPATLSLSPGERATISCRSSQSLRHSNRNTYLQWYQQKPGQAPRLLIYKVSNRFSGVPARFSGSGSGTDFTLTISSLEPEDFAVYFCYQSKHVPYTFGGGTKVEIKR: 2850 MFI

(Q) // lookup Bmax (MFI) for H18L6_LC_N33E mAb, v40213 (antibody, human IgG1, kappa, V domains shown, M3-H18L6 chains with the stated light chain point mutation, IgG1/kappa) VH: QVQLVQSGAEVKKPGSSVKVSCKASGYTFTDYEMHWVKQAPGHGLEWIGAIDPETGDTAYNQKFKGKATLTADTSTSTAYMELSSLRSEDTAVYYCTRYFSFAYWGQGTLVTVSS VL: EIVLTQSPATLSLSPGERATISCRSSQSLRHSEGNTYLQWYQQKPGQAPRLLIYKVSNRFSGVPARFSGSGSGTDFTLTISSLEPEDFAVYFCYQSKHVPYTFGGGTKVEIKR
(A) 2320 MFI

(Q) // lookup Bmax (MFI) for H18L6_LC_G34H mAb, v40205 (antibody, human IgG1, kappa, V domains shown, M3-H18L6 chains with the stated light chain point mutation, IgG1/kappa) VH: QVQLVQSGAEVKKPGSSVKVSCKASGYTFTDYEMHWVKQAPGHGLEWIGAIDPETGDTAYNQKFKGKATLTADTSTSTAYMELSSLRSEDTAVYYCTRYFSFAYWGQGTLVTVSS VL: EIVLTQSPATLSLSPGERATISCRSSQSLRHSNHNTYLQWYQQKPGQAPRLLIYKVSNRFSGVPARFSGSGSGTDFTLTISSLEPEDFAVYFCYQSKHVPYTFGGGTKVEIKR
(A) 2990 MFI

(Q) // lookup Bmax (MFI) for H18L6_LC_G34S mAb, v40210 (antibody, human IgG1, kappa, V domains shown, M3-H18L6 chains with the stated light chain point mutation, IgG1/kappa) VH: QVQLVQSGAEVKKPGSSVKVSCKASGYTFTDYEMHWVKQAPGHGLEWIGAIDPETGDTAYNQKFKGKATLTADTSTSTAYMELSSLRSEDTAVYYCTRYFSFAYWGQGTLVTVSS VL: EIVLTQSPATLSLSPGERATISCRSSQSLRHSNSNTYLQWYQQKPGQAPRLLIYKVSNRFSGVPARFSGSGSGTDFTLTISSLEPEDFAVYFCYQSKHVPYTFGGGTKVEIKR
(A) 2970 MFI

(Q) // lookup Bmax (MFI) for H18L6_LC_G34T mAb, v40209 (antibody, human IgG1, kappa, V domains shown, M3-H18L6 chains with the stated light chain point mutation, IgG1/kappa) VH: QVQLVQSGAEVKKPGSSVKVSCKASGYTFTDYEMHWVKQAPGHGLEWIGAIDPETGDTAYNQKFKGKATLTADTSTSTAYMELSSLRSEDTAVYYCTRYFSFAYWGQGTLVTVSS VL: EIVLTQSPATLSLSPGERATISCRSSQSLRHSNTNTYLQWYQQKPGQAPRLLIYKVSNRFSGVPARFSGSGSGTDFTLTISSLEPEDFAVYFCYQSKHVPYTFGGGTKVEIKR
(A) 2840 MFI
